conditions: 348.15 K, Wilhelmy-plate method
Catalogue of molecules with associated surface tension liquid-gas

# molecule, surface tension liquid-gas / mN/m
data = [
    ("CC(=O)OCCC(C)C [3-methylbutyl ethanoate]", 19.6),
    ("CCCC(=O)OCCC(C)C [3-methylbutyl butanoate]", 20.5),
    ("CC(=O)OCc1ccccc1 [benzyl ethanoate]", 31.1),
    ("COC(=O)c1ccccc1 [methyl benzoate]", 31.3),
    ("CCOC(=O)CC(C)=O [ethyl 3-oxobutanoate]", 27),
    ("CCOC(=O)CC(C)C [ethyl 3-methylbutanoate]", 18.7),
    ("CCOC(=O)Cc1ccccc1 [ethyl phenylacetate]", 29.4),
    ("CCOC(=O)c1ccccc1O [ethyl 2-hydroxybenzoate]", 31),
    ("CCCCCCCC(=O)OCC [ethyl octanoate]", 22),
    ("CCC(=O)OCc1ccccc1 [benzyl propanoate]", 29.5),
    ("CCCCCC(=O)OCC [ethyl hexanoate]", 21),
    ("CCOC(=O)c1ccccc1 [ethyl benzoate]", 29.3),
]

----------
assay: refractive index (Na D-line) (dimensionless); conditions: 338.15 K; 101.33 kPa; Liquid; Standard Abbe refractometry

# molecule, refractive index
records = [
    ("CCC(=O)OCc1ccccc1 [benzyl propanoate]", 1.47711),
    ("CCOC(=O)Cc1ccccc1 [ethyl phenylacetate]", 1.47688),
    ("CCCCCC(=O)OCC [ethyl hexanoate]", 1.38705),
    ("COC(=O)c1ccccc1 [methyl benzoate]", 1.49584),
    ("CCOC(=O)c1ccccc1O [ethyl 2-hydroxybenzoate]", 1.50191),
    ("CCOC(=O)CC(C)C [ethyl 3-methylbutanoate]", 1.37492),
    ("CCOC(=O)c1ccccc1 [ethyl benzoate]", 1.4847),
    ("CCCC(=O)OCCC(C)C [3-methylbutyl butanoate]", 1.39055),
    ("CCOC(=O)CC(C)=O [ethyl 3-oxobutanoate]", 1.39949),
    ("CC(=O)OCCC(C)C [3-methylbutyl ethanoate]", 1.37971),
    ("CCCCCCCC(=O)OCC [ethyl octanoate]", 1.39857),
    ("CC(=O)OCc1ccccc1 [benzyl ethanoate]", 1.48157),
]

----------
conditions: 328.15 K; 101.33 kPa; Liquid; Capillary tube (Ostwald / Ubbelohde) method
// NO strictly below 1 mPa·s in viscosity; YES otherwise

# compound, label
rows = [
    ("CCOC(=O)c1ccccc1 [ethyl benzoate]", "YES"),
    ("CC(=O)OCc1ccccc1 [benzyl ethanoate]", "YES"),
    ("CCCC(=O)OCCC(C)C [3-methylbutyl butanoate]", "NO"),
    ("CCC(=O)OCc1ccccc1 [benzyl propanoate]", "YES"),
    ("CC(=O)OCCC(C)C [3-methylbutyl ethanoate]", "NO"),
]

----------
conditions: 298.15 K; 101.33 kPa; Liquid; Capillary tube (Ostwald / Ubbelohde) method
Numbers after ± are expanded uncertainties.
measure.name: viscosity

# molecule, result
measured = [
    ("CCOC(=O)c1ccccc1 [ethyl benzoate]", "1.971 ± 0.026 mPa·s"),
    ("CCCCCC(=O)OCC [ethyl hexanoate]", "0.94 ± 0.013 mPa·s"),
    ("CCCCCCCC(=O)OCC [ethyl octanoate]", "1.411 ± 0.019 mPa·s"),
    ("CCOC(=O)CC(C)C [ethyl 3-methylbutanoate]", "0.739 ± 0.011 mPa·s"),
    ("COC(=O)c1ccccc1 [methyl benzoate]", "1.851 ± 0.025 mPa·s"),
    ("CC(=O)OCCC(C)C [3-methylbutyl ethanoate]", "0.804 ± 0.011 mPa·s"),
    ("CCCC(=O)OCCC(C)C [3-methylbutyl butanoate]", "1.111 ± 0.015 mPa·s"),
    ("CC(=O)OCc1ccccc1 [benzyl ethanoate]", "2.056 ± 0.027 mPa·s"),
    ("CCOC(=O)c1ccccc1O [ethyl 2-hydroxybenzoate]", "2.831 ± 0.037 mPa·s"),
    ("CCOC(=O)CC(C)=O [ethyl 3-oxobutanoate]", "1.581 ± 0.022 mPa·s"),
    ("CCOC(=O)Cc1ccccc1 [ethyl phenylacetate]", "2.384 ± 0.032 mPa·s"),
    ("CCC(=O)OCc1ccccc1 [benzyl propanoate]", "2.123 ± 0.029 mPa·s"),
]
